Data provenance: ChEMBL document CHEMBL4627400

- Target: Ionotropic glutamate receptor NMDA 1/2D (Rattus norvegicus) (UniProt P35439+Q62645)
- Assay details: Positive allosteric modulation of recombinant rat GluN1a/GluN2D receptor expressed in Xenopus laevis oocytes assessed as increase in glycine/L-glutamate-induced channel current at 30 uM by two-electrode voltage clamp method relative to control
- Type: cell-based
What %max was measured for each of the following?
Write it as a number; the unit % goes unstated.

# query: %max of entry COc1ccc(OCC2c3cccn3CC(=O)N2Cc2cccc(C(F)(F)F)c2)cc1 (centres undefined) 400

Okay, and COc1ccc(OCC2c3ccc(OC)cc3CC(=O)N2CCCC(F)(F)F)cc1 (centres undefined) ? 450

Okay, and COc1ccc(OCC2c3ccc(OC(C)C)cc3CC(=O)N2Cc2cccc(Cl)c2)cc1 (centres undefined) ? 370

Okay, and COc1ccc(OCC2c3cc(OC)c(OC)cc3CC(=O)N2Cc2cccc(Cl)c2)cc1 (centres undefined) ? 340

Okay, and COc1ccc(OCC2c3cccn3CC(=O)N2Cc2cccc(F)c2)cc1 (centres undefined) ? 350

Okay, and COc1ccc(OCC2c3occc3CCN2C(=O)c2cccc(Cl)c2)cc1 (centres undefined) ? 470

Okay, and COc1ccc(OC[C@@H]2c3cccn3CC(=O)N2Cc2cccc(C(F)(F)F)c2)cc1 ? 88

Okay, and COc1ccc(OCC2c3ccc(OC)cc3CC(=O)N2CC(F)(F)F)cc1 (centres undefined) ? 160

Okay, and COc1ccc(OCC2c3ccc(OC(C)C)cc3CCN2C(=O)c2cccc(Cl)c2)cc1 (centres undefined) ? 250

Okay, and COc1cc2c(cc1OC)C(COc1cccnc1)N(C(=O)c1cccc(C(F)(F)F)c1)CC2 (centres undefined) ? 88

Okay, and COc1ccc(OCC2c3ccsc3CCN2C(=O)c2cccc(Cl)c2)cc1 (centres undefined) ? 340

Okay, and COc1ccc(OC[C@H]2c3cccn3CC(=O)N2Cc2cccc(F)c2)cc1 ? 390

Okay, and COc1ccc(OCC2c3cccn3CCN2C(=O)c2cccc(Cl)c2)cc1 (centres undefined) ? 370

Okay, and COc1ccc(OC[C@H]2c3cccn3CCN2C(=O)c2cccc(C(F)(F)F)c2)cc1 ? 540
